- measurement-target: T1, GARS, endogenous in H929 multiple myeloma cells (human, UniProt P41250 37-739, limits assumed)
- T1 construct: Native protein pulled down from H929 lysates; also called Glycyl-tRNA synthetase; GlyRS
- T1 sequence: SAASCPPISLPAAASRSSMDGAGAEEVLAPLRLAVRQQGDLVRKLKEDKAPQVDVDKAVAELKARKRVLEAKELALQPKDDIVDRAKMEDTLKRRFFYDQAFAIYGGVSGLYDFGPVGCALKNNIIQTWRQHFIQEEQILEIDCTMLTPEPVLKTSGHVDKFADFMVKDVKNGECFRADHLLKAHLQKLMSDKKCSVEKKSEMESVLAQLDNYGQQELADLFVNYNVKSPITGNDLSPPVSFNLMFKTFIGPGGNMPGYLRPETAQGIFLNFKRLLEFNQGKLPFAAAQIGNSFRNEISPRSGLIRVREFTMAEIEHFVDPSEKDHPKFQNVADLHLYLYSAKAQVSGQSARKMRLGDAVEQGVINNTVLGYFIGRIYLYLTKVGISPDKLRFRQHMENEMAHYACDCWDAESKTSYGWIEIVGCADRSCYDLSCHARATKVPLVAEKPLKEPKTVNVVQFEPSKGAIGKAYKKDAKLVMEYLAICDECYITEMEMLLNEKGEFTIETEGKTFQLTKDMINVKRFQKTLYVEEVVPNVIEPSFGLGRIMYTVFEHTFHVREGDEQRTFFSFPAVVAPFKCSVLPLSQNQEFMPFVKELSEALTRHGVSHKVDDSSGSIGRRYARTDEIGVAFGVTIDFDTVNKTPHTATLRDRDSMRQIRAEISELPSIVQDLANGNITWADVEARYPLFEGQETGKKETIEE
- test-method-notes: flow cytometry, H929 + PTPRG siRNA; None 2.13; surface target GARS putative

binder: HW-16 chimeric rabbit-human IgG1 LA/LA/PG (antibody, V domains shown, Fc-silenced (L234A/L235A/P329G) IgG1, kappa; Alexa Fluor 647-labeled in single-step flow cytometry; Cluster C-45) VH: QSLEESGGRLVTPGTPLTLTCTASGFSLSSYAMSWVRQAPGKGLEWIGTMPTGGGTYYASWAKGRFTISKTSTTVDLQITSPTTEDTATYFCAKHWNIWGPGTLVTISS VL: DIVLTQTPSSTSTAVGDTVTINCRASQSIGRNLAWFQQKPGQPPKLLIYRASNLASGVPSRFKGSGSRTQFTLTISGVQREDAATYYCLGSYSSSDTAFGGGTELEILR
unit-info: %
Cells stained (%): 98.2
//
binder: HW-81 chimeric rabbit-human IgG1 LA/LA/PG (antibody, V domains shown, Fc-silenced (L234A/L235A/P329G) IgG1, lambda; Alexa Fluor 647-labeled in single-step flow cytometry; Cluster C-45) VH: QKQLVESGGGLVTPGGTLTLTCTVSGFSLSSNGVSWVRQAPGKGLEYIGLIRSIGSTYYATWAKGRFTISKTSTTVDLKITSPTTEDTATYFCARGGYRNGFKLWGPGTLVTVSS VL: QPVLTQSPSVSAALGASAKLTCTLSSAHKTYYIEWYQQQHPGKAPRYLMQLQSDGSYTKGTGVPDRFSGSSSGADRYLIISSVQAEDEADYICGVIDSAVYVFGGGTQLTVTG
unit-info: %
Cells stained (%): 100
//
binder: HW-28 chimeric rabbit-human IgG1 LA/LA/PG (antibody, V domains shown, Fc-silenced (L234A/L235A/P329G) IgG1, lambda; Alexa Fluor 647-labeled in single-step flow cytometry; Cluster C-45) VH: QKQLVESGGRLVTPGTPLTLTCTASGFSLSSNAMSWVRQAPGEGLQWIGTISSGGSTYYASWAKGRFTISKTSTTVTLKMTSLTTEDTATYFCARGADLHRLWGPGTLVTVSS VL: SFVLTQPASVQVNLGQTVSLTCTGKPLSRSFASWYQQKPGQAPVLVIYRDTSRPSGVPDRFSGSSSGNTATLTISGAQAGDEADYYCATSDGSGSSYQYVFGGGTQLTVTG
unit-info: %
Cells stained (%): 98.6
